- test description: Pharmacokinetics of Tac in rats alone or co-administered with deoxyschizandrin or Wuzhi capsule (UHPLC-MS/MS of plasma)
- Format: in vivo, SD rats
- reported conditions: male, SD, rat, plasma, 1 mg/kg; Tac alone (NG2203), rat plasma
endpoint: AUC(0-t) (ng·h/mL)

C=CC[C@@H]1/C=C(\C)C[C@H](C)C[C@H](OC)[C@H]2O[C@@](O)(C(=O)C(=O)N3CCCC[C@H]3C(=O)O[C@H](/C(C)=C/[C@@H]3CC[C@@H](O)[C@H](OC)C3)[C@H](C)[C@@H](O)CC1=O)[C@H](C)C[C@@H]2OC [Tac, Tacrolimus] :: 95.1

Hey, just so you know, these numbers are from paper PMC11188489.
